experiment: Pharmacokinetics following oral (PO) dosing; type: in vivo, Sprague-Dawley rats; conditions: male, Sprague-Dawley, rat, plasma; hydroxycodone series, 5.0 mg/kg oral, median value; read-out: Tmax (converted)
assay.readout: Tmax (min)
One number for each entry, in min.

// worked examples, Tmax included
[[record]]
compound = "COCCOCCOCCOCCOCCOCCOCCOC1CCC2(O)C3Cc4ccc(OC)c5c4C2(CCN3C)C1O5 (stereo not drawn) [α-6-mPEG7-O-hydroxycodone, α-6-mPEG7-O-oxycodone]"
measured = 120

[[record]]
compound = "COCCOC1CCC2(O)C3Cc4ccc(OC)c5c4C2(CCN3C)C1O5 (stereo not drawn) [α-6-mPEG1-O-hydroxycodone, α-6-mPEG1-O-oxycodone]"
measured = 15

[[record]]
compound = "COCCOCCOCCOCCOCCOCCOC1CCC2(O)C3Cc4ccc(OC)c5c4C2(CCN3C)C1O5 (stereo not drawn) [α-6-mPEG6-O-hydroxycodone, α-6-mPEG6-O-oxycodone]"
measured = 120

[[record]]
compound = "COCCOCCOC1CCC2(O)C3Cc4ccc(OC)c5c4C2(CCN3C)C1O5 (stereo not drawn) [α-6-mPEG2-O-hydroxycodone, α-6-mPEG2-O-oxycodone]"
measured = 15


Continue with the compound presented below.
Consider COCCOCCOCCOCCOC1CCC2(O)C3Cc4ccc(OC)c5c4C2(CCN3C)C1O5 (stereo not drawn) [α-6-mPEG4-O-hydroxycodone, α-6-mPEG4-O-oxycodone] . Its measured Tmax is 15

----------
Kindly state AUC(0-inf) for each of the entries shown.
assay: Pharmacokinetics following intravenous (IV) dosing; format: in vivo, Sprague-Dawley rats; conditions: male, Sprague-Dawley, rat, plasma, iv, 1 mg/kg
One number for each entry, in ng·h/mL.

[[record]]
compound = "COCCOCCOCCOCCOC1C=CC2C3Cc4ccc(OC)c5c4C2(CCN3C)C1O5 (stereo not drawn) [α-6-mPEG4-O-codeine]"
assay_readout = "AUC(0-inf)"
measured = 257


State the recorded AUC(0-inf) for every item in the following list.
1. COCCOCCOC1C=CC2C3Cc4ccc(OC)c5c4C2(CCN3C)C1O5 (stereo not drawn) [α-6-mPEG2-O-codeine]
2. COCCOCCOCCOC1C=CC2C3Cc4ccc(OC)c5c4C2(CCN3C)C1O5 (stereo not drawn) [α-6-mPEG3-O-codeine]
3. COCCOCCOCCOCCOCCOC1C=CC2C3Cc4ccc(OC)c5c4C2(CCN3C)C1O5 (stereo not drawn) [α-6-mPEG5-O-codeine]
4. COCCOC1C=CC2C3Cc4ccc(OC)c5c4C2(CCN3C)C1O5 (stereo not drawn) [α-6-mPEG1-O-codeine]
5. COCCOCCOCCOCCOCCOCCOCCOCCOCCOC1C=CC2C3Cc4ccc(OC)c5c4C2(CCN3C)C1O5 (stereo not drawn) [α-6-mPEG9-O-codeine]
6. COCCOCCOCCOCCOCCOCCOCCOC1C=CC2C3Cc4ccc(OC)c5c4C2(CCN3C)C1O5 (stereo not drawn) [α-6-mPEG7-O-codeine]

1. 243
2. 290
3. 195
4. 262
5. 347
6. 228

----------
Kindly state Cmax for each of the entries shown.
assay: Pharmacokinetics following oral (PO) dosing; type: in vivo, Sprague-Dawley rats; details: male, Sprague-Dawley, rat, plasma, po, 5 mg/kg; read-out: Cmax
One number for each entry, in ng/mL.

// worked examples, Cmax included
[[record]]
compound = "COCCOCCOCCOCCOCCOCCOCCOCCOCCOC1C=CC2C3Cc4ccc(OC)c5c4C2(CCN3C)C1O5 (stereo not drawn)"
measured = 31.5

[[record]]
compound = "COCCOCCOCCOCCOCCOC1C=CC2C3Cc4ccc(OC)c5c4C2(CCN3C)C1O5 (stereo not drawn)"
measured = 48.7

[[record]]
compound = "COCCOCCOCCOCCOC1C=CC2C3Cc4ccc(OC)c5c4C2(CCN3C)C1O5 (stereo not drawn)"
measured = 31.1


State the recorded Cmax for every item in the following list.
1. COCCOCCOCCOC1C=CC2C3Cc4ccc(OC)c5c4C2(CCN3C)C1O5 (stereo not drawn)
2. COCCOCCOC1C=CC2C3Cc4ccc(OC)c5c4C2(CCN3C)C1O5 (stereo not drawn)
3. COCCOCCOCCOCCOCCOCCOCCOC1C=CC2C3Cc4ccc(OC)c5c4C2(CCN3C)C1O5 (stereo not drawn)

25
3.47
76.6

----------
assay: Pharmacokinetics following intravenous (IV) dosing; type: in vivo, Sprague-Dawley rats; conditions: male, Sprague-Dawley, rat, plasma; hydroxycodone series, 1 mg/kg IV, Mean ± SD
assay.readout: clearance (mL/min/kg)
Give bare numbers, in mL/min/kg.

// worked examples, clearance included
[[record]]
compound = "COCCOCCOCCOCCOCCOCCOCCOC1CCC2(O)C3Cc4ccc(OC)c5c4C2(CCN3C)C1O5 (stereo not drawn) [α-6-mPEG7-O-hydroxycodone, α-6-mPEG7-O-oxycodone]"
assay_readout = "clearance"
unit_abbreviation = "mL/min/kg"
measured = 63.3

[[record]]
compound = "COCCOCCOCCOCCOCCOCCOC1CCC2(O)C3Cc4ccc(OC)c5c4C2(CCN3C)C1O5 (stereo not drawn) [α-6-mPEG6-O-hydroxycodone, α-6-mPEG6-O-oxycodone]"
assay_readout = "clearance"
unit_abbreviation = "mL/min/kg"
measured = 77.9

[[record]]
compound = "COCCOCCOCCOCCOCCOC1CCC2(O)C3Cc4ccc(OC)c5c4C2(CCN3C)C1O5 (stereo not drawn) [α-6-mPEG5-O-hydroxycodone, α-6-mPEG5-O-oxycodone]"
assay_readout = "clearance"
unit_abbreviation = "mL/min/kg"
measured = 57


Continue with the compound presented below.
Consider COCCOCCOCCOCCOC1CCC2(O)C3Cc4ccc(OC)c5c4C2(CCN3C)C1O5 (stereo not drawn) [α-6-mPEG4-O-hydroxycodone, α-6-mPEG4-O-oxycodone] . Its measured clearance is 86.5

----------
assay: Pharmacokinetics following intravenous (IV) dosing; format: in vivo, Sprague-Dawley rats; conditions: male, Sprague-Dawley, rat, plasma, iv, 1 mg/kg
assay.readout: clearance (mL/min/kg)
Give bare numbers, in mL/min/kg.

// worked examples, clearance included
[[record]]
compound = "COCCOC1C=CC2C3Cc4ccc(OC)c5c4C2(CCN3C)C1O5 (stereo not shown)"
unit_abbreviation = "mL/min/kg"
measured = 64.6

[[record]]
compound = "COCCOCCOCCOCCOC1C=CC2C3Cc4ccc(OC)c5c4C2(CCN3C)C1O5 (stereo not shown)"
unit_abbreviation = "mL/min/kg"
measured = 65.9

[[record]]
compound = "COCCOCCOCCOCCOCCOC1C=CC2C3Cc4ccc(OC)c5c4C2(CCN3C)C1O5 (stereo not shown)"
unit_abbreviation = "mL/min/kg"
measured = 86.2


Continue with the compound presented below.
Consider COCCOCCOCCOC1C=CC2C3Cc4ccc(OC)c5c4C2(CCN3C)C1O5 (stereo not shown) . Its measured clearance is 57.7

----------
experiment: Pharmacokinetics following oral (PO) dosing; format: in vivo, Sprague-Dawley rats; settings: male, Sprague-Dawley, rat, plasma, po, 5 mg/kg; read-out: Tmax (converted)
Kindly state Tmax for each of the entries shown.
Answers are plain numbers, in min.

// worked examples, Tmax included
[[record]]
compound = "COCCOCCOCCOC1C=CC2C3Cc4ccc(OC)c5c4C2(CCN3C)C1O5 (stereo not drawn)"
unit_abbreviation = "min"
measured = 15

[[record]]
compound = "COCCOCCOCCOCCOCCOCCOCCOCCOCCOC1C=CC2C3Cc4ccc(OC)c5c4C2(CCN3C)C1O5 (stereo not drawn)"
unit_abbreviation = "min"
measured = 15

[[record]]
compound = "COCCOCCOCCOCCOCCOC1C=CC2C3Cc4ccc(OC)c5c4C2(CCN3C)C1O5 (stereo not drawn)"
unit_abbreviation = "min"
measured = 15

[[record]]
compound = "COCCOCCOCCOCCOCCOCCOCCOC1C=CC2C3Cc4ccc(OC)c5c4C2(CCN3C)C1O5 (stereo not drawn)"
unit_abbreviation = "min"
measured = 120

[[record]]
compound = "COCCOCCOC1C=CC2C3Cc4ccc(OC)c5c4C2(CCN3C)C1O5 (stereo not drawn)"
unit_abbreviation = "min"
measured = 15


Consider COCCOCCOCCOCCOC1C=CC2C3Cc4ccc(OC)c5c4C2(CCN3C)C1O5 (stereo not drawn) . Its measured Tmax is 15

----------
test system: squirrel monkeys; test: Monkey self-administration model of addictive potential; details: 0.03 mg/kg/injection
Kindly state injection lever responses (% ILR) for each of the entries shown.
Numbers only, in %.

[[record]]
compound = "COc1ccc2c3c1O[C@H]1C(=O)CC[C@@]4(O)[C@@H](C2)N(C)CC[C@]314 [Oxycodone, oxycodone, reference compound]"
measured = 100


Consider CN1CC[C@]23c4c5ccc(O)c4O[C@H]2[C@@H](O)C=C[C@H]3[C@H]1C5 [Morphine, morphine, reference compound] . Its measured injection lever responses (% ILR) is 100

----------
assay: Pharmacokinetics following intravenous (IV) dosing; format: in vivo, Sprague-Dawley rats; settings: male, Sprague-Dawley, rat, plasma, iv, 1 mg/kg; read-out: T1/2(2)
Kindly state half-life for each of the entries shown.
One number for each entry, in min.

[[record]]
compound = "COCCOCCOCCOCCOCCOCCOCCOCCOCCOC1C=CC2C3Cc4ccc(OC)c5c4C2(CCN3C)C1O5 (stereo not drawn) [α-6-mPEG9-O-codeine]"
measured = 109

[[record]]
compound = "COCCOCCOCCOCCOCCOCCOCCOC1C=CC2C3Cc4ccc(OC)c5c4C2(CCN3C)C1O5 (stereo not drawn) [α-6-mPEG7-O-codeine]"
measured = 74.5

[[record]]
compound = "COCCOCCOCCOCCOCCOC1C=CC2C3Cc4ccc(OC)c5c4C2(CCN3C)C1O5 (stereo not drawn) [α-6-mPEG5-O-codeine]"
measured = 42.7

[[record]]
compound = "COCCOC1C=CC2C3Cc4ccc(OC)c5c4C2(CCN3C)C1O5 (stereo not drawn) [α-6-mPEG1-O-codeine]"
measured = 42.1

[[record]]
compound = "COCCOCCOC1C=CC2C3Cc4ccc(OC)c5c4C2(CCN3C)C1O5 (stereo not drawn) [α-6-mPEG2-O-codeine]"
measured = 35.3


State the recorded half-life for every item in the following list.
1. COCCOCCOCCOC1C=CC2C3Cc4ccc(OC)c5c4C2(CCN3C)C1O5 (stereo not drawn) [α-6-mPEG3-O-codeine]
2. COCCOCCOCCOCCOC1C=CC2C3Cc4ccc(OC)c5c4C2(CCN3C)C1O5 (stereo not drawn) [α-6-mPEG4-O-codeine]

1. 39.4
2. 57.1

meta.source: patent US20130023553A1
